Biological target: T1, human IL-12 (human, UniProt P29459 23-219; P29460 23-328)
T1 construct: recombinant human IL-12 heterodimer (p35/p40, disulfide-linked); also called hIL-12; rhIL-12
T1 sequence (looked up) 1: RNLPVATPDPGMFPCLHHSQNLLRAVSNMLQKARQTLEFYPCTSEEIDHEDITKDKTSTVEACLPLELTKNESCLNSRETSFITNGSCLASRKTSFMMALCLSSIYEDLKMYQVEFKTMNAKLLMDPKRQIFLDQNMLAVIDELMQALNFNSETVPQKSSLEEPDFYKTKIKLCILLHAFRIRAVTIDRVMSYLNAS
T1 sequence (looked up) 2: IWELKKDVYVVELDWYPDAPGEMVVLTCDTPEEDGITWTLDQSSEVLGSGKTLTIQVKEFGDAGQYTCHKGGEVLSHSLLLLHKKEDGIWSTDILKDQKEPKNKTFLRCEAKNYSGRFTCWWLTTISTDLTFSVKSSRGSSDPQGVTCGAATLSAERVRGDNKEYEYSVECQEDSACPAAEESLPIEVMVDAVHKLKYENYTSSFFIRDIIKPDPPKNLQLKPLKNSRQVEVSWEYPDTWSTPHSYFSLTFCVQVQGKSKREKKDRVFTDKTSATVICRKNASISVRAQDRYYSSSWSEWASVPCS
Assay: RB assay: 125I-hIL-12 binding to PHA blasts
# key: entry, value: IC50
Form entry: value (pM) — number only.

The examples below pair each entry with its known result.
- binder: "Y17 (scFv, V domains shown, scFv) VH: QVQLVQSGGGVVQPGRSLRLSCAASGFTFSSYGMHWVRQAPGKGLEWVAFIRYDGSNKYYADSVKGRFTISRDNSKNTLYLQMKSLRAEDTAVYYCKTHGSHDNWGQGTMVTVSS VL: SYVLTQPPSVSGTPGQRVTISCSGGRSNIGSNTVKWYQQLPGTAPKLLIYGNDQRPSGVPDRFSGSKSGTSASLAITGVQAEDEADYYCQSYDRGSAPMINFGTGTKVTVL"
  observable: "IC50"
  unit_of_measurement: "pM"
  experimental_result: 450
- binder: "136-15 (scFv, V domains shown, scFv) VH: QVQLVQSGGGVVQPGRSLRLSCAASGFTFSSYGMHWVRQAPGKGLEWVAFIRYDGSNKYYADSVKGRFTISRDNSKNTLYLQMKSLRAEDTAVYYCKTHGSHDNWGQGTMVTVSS VL: SYVLTQPPSVSGTPGQRVTISCSGSRSNIGSNTVKWYQQLPGTAPKLLIYGNDQRPSGVPDRFSGSKSGTSASLAITGVQAEDEADYYCQTYDKGFTGSSVFGTGTKVTVLG"
  observable: "IC50"
  unit_of_measurement: "pM"
  experimental_result: 100

Kindly consider the entry below.
Query: Read off the recorded IC50 for 79-1 (scFv, V domains shown, scFv) VH: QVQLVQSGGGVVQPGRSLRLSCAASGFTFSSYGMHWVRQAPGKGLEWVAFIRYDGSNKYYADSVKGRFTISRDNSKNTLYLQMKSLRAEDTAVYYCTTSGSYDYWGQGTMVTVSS VL: SYVLTQPPSVSGTPGQRVTISCSGGRSNIGSNTVKWYQQLPGTAPKLLIYGNDQRPSGVPDRFSGSKSGTSASLAITGVQAEDEADYYCQSYDSSLWGSRVFGTGTKVTVL
Result: 200000

From: patent US20150037348A1
